System: OVCAR-8
Assay: NCI tumour cell line growth inhibition, 48 h
Active and inactive are the calls of the source. Cut-off read from the data, not from the text of the source: active = GI50 up to about 1.1 µM and inactive = higher. Square brackets hold non-standard residues; d marks the D form. Peptide text beside a SMILES is read from it. * marks the point of attachment. ξ: configuration not given here. Propanoyl(3-(4-MeO-Ph)) = COc1ccc(CCC(=O)*)cc1; Thr(3ξ) = CC(O)[C@H](N)C(=O)O; dNMeL = CN[C@H](CC(C)C)C(=O)O; ξLac = CC(O)C(=O)O
The reply should name one outcome from yes for active, no for inactive

# count of solved cases: 3
Prompt: Please state the recorded outcome for this molecule: COc1ccccc1NC(=O)CC(=O)N1N=C(C)C(/N=N/c2ccc(C(=O)O)cc2)C1=O (centres undefined)
Response: no

Prompt: Please state the recorded outcome for this molecule: `O=C(Oc1ccccc1)c1cc2cc(CCl)ccc2oc1=O`
Response: no

Prompt: Please state the recorded outcome for this molecule: COC(=O)[C@@H](NC(=O)[C@@H](CC(C)C)N(C)C(=O)[C@@H]1CCCN1C(=O)C(C)O)C(C)OC(=O)CCc1ccc(OC)cc1 (some centres undefined) (H-[ξLac]P[dNMeL][Thr(3ξ)](Propanoyl(3-(4-MeO-Ph)))-OMe)
Response: no

Continuing:
Prompt: Please state the recorded outcome for this molecule: `CC(=N/NC(=S)N(C)C)/C(=N\NC(=S)N(C)C)c1ccccc1`
Response: no

Prompt: Please state the recorded outcome for this molecule: `OCCNCN(CNCCO)c1nc(N(CNCCO)CNCCO)nc(N(CNCCO)CNCCO)n1`
Response: yes

Prompt: Please state the recorded outcome for this molecule: `CCOc1ccc(/C=C2/C(=O)N/C(=N\C(C)=O)N2C)cc1`
Response: no

---

System: OVCAR-4
Test: NCI tumour cell line growth inhibition, 48 h
Activity calls are given as the source filed them. Cut-off read from the data, not from the text of the source: active = GI50 up to about 1.1 µM and inactive = higher.
reportedEndpoint: GI50

These solved cases illustrate the format of a correct answer.
Prompt: Using known records, supply GI50 for `O=C1C(Cl)=C(N2CCN(CCOCCO)CC2)C(=O)c2ncccc21`
Response: > 10 µM (inactive)

Prompt: Using known records, supply GI50 for `CC(=O)O[C@@H]1O[Si](C(C)(C)C)(C(C)(C)C)[C@H](C)[C@H]1C`
Response: > 100 µM (inactive)

Prompt: Using known records, supply GI50 for `Cc1c(C)c2c(c(N)c1C#N)C(=O)N(O)C2=O`
Response: > 100 µM (inactive)

Prompt: Using known records, supply GI50 for `CN(C)CCNC(=O)c1cccc2cc3ccc4ccccc4c3nc12`
Response: 0.115 µM (active)

Prompt: Using known records, supply GI50 for CC(=O)NC(CCCNC(=O)OCc1ccccc1)C(=O)NCc1ccccc1 (stereo unspecified)
Response: > 100 µM (inactive)

Continuing:
Prompt: Using known records, supply GI50 for `COc1ccc(-c2cc(C(=O)Nc3ccc(C)c(C)c3)nc(NC#N)n2)cc1`
Response: > 100 µM (inactive)

Prompt: Using known records, supply GI50 for `CCCCC/C=C\C=C\CCCCCCCCC(=O)OC`
Response: > 100 µM (inactive)

Prompt: Using known records, supply GI50 for COc1ccc(-c2oc3cc(O)c(OC)c(O)c3c(=O)c2O)cc1 [BETULETOL]
Response: 30.2 µM (inactive)

Prompt: Using known records, supply GI50 for COc1c2c(cc3c1-c1c(cc4c(c1OC)OCO4)C1OC3C(C)C1C)OCO2.COc1cc2c(c(OC)c1OC)-c1c(cc3c(c1OC)OCO3)C1OC2C(C)C1C (stereo unspecified)
Response: > 100 µM (inactive)

Prompt: Using known records, supply GI50 for `O=C(CCCN1CCC2(CC1)CC(=O)N(N1CCCCCC1)C2=O)c1ccccc1`
Response: > 100 µM (inactive)

meta.source: ChEMBL document CHEMBL1201862
